# EXPERIMENTAL TARGET: Collagenase 3 (Homo sapiens, UniProt P45452)
# PROCEDURE TEXT: Inhibition of Matrix metalloprotease-13
QUANTITY MEASURED: IC50 (nM)
Dear colleague, please return just the value in nM, with no unit written.

Lab book: IC50 of CC#CCOc1ccc(S(=O)(=O)N(C)c2c(C(=O)NO)cc(Br)cc2C2CCN(C)CC2)cc1 noted as 252

* * *

Consider the following compounds; for each one, report its inhibition at 3 µM.
# System: THP-1
# PROCEDURE TEXT: Inhibition of LPS-stimulated TNF-alpha production in THP-1 cells at a concentration of 3 uM
# Assay type: functional
# CONDITION LABEL: Homo sapiens
Answer in %, number only, no unit symbol.

Form: compound = CC#CCOc1ccc(S(=O)(=O)N(C)c2c(C(=O)NO)cc(-c3ccccc3)cc2C2CCN(C)CC2)cc1 ; inhibition at 3 µM = 95

According to the records, this compound CC#CCOc1ccc(S(=O)(=O)N(C)c2c(C(=O)NO)cc(Br)cc2C2CCN(C)CC2)cc1 displays inhibition at 3 µM of 94

Lab note: measured inhibition at 3 µM of CC#CCOc1ccc(S(=O)(=O)N(C)c2ccccc2C(=O)NO)cc1 was 32

Lab note: measured inhibition at 3 µM of COc1ccc(S(=O)(=O)N(C)c2c(C(=O)NO)cc(Br)cc2C2CCN(C)CC2)cc1 was 42

Query CCCCOc1ccc(S(=O)(=O)N(C)c2c(C)cc(Br)cc2C(=O)NO)cc1 yields inhibition at 3 µM of 0
